Data provenance is paper PMC7240828.

Target: UniProt P13866
Sequence (P13866 1-664): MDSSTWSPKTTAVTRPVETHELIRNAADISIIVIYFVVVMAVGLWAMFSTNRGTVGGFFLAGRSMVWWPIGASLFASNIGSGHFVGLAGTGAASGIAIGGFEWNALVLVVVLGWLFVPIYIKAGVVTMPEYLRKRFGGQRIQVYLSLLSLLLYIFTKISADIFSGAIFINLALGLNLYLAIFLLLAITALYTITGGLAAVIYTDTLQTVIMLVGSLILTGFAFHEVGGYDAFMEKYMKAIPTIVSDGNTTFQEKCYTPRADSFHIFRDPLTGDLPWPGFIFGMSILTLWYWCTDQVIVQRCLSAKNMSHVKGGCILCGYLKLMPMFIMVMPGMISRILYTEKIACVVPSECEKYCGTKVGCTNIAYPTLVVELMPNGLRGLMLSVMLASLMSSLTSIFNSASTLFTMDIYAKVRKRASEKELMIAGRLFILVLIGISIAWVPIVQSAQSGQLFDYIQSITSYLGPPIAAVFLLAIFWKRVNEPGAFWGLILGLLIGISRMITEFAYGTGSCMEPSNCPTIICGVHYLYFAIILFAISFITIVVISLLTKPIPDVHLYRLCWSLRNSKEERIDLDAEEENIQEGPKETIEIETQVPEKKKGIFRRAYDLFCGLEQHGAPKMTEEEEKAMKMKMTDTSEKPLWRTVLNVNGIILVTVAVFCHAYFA
Experiment: Flavonoid uptake/transport in Caco-2 BBe1 cells with phloridzin
Format: in vitro ADME
Conditions: 1 μM phloridzin 30 min pretreatment, 50 μM flavonoid, 4 h, basolateral transport
parameter: fold change of glycoside transport by phloridzin-mediated inhibition (fold)
Numeric answer only, unit fold assumed.

Exam item: Give its fold change of glycoside transport by phloridzin-mediated inhibition value. Item: OC[C@H]1O[C@@H](Oc2cc3c(O)cc(O)cc3[o+]c2-c2ccc(O)c(O)c2)[C@H](O)[C@@H](O)[C@@H]1O [C-3-G, cyanidin 3-O-glucoside]
Marked response: 3.29

Exam item: Now the compound OC[C@H]1O[C@@H](Oc2cc3c(O[C@@H]4O[C@H](CO)[C@@H](O)[C@H](O)[C@H]4O)cc(O)cc3[o+]c2-c2ccc(O)c(O)c2)[C@H](O)[C@@H](O)[C@@H]1O [cyanin, cyanidin 3,5-diglucoside]
Marked response: 6.45

Exam item: Now the compound C[C@@H]1O[C@@H](OC[C@H]2O[C@@H](Oc3c(-c4ccc(O)c(O)c4)oc4cc(O)cc(O)c4c3=O)[C@H](O)[C@@H](O)[C@@H]2O)[C@H](O)[C@H](O)[C@H]1O [rutin, quercetin 3-rutinoside]
Marked response: 5.77

# next compound below
Exam item: Give its fold change of glycoside transport by phloridzin-mediated inhibition value. Item: O=c1c(O[C@@H]2O[C@H](CO)[C@@H](O)[C@H](O)[C@H]2O)c(-c2ccc(O)c(O)c2)oc2cc(O)cc(O)c12 [Q-3-G, quercetin 3-β-D-glucoside]
Marked response: 2.31
